Target: UniProt Q06187
Assay: BTK IC50 enzyme assay (microfluidic off-chip mobility shift kinase assay)
Conditions: incubated for 90 min. at 27 C; read-out: Time Dependent BTK Enzyme Assay IC50
Protocol: The following describes a microfluidic, off-chip mobility shift kinase assay used to measure inherent potency of compounds against BTK enzyme. Compounds described by embodiments of the present invention were assayed using this protocol and the data from the same is recorded in Table 2 within the column labeled: “Time Dependent BTK Enzyme Assay IC50”. […]
PARAMETER: IC50

Before answering, review these 5 worked examples.
C=CC(=O)N1CCC(CNc2ncnc(N)c2-c2cc(F)c(Oc3ccccc3)cc2F)CC1 [A87]; < 1000 nM
C=CC(=O)Nc1cccc(Oc2ncnc(N)c2-c2cnn(Cc3ccc(OC)cc3)c2)c1 [A72]; < 100 nM
C=CC(=O)N1CCC(CNc2ncnc(N)c2-c2ccc(Cc3ccccc3)cc2)CC1 [A41]; < 100 nM
C=CC(=O)Nc1cccc(-c2c(Oc3ccc(Oc4ccccc4)cc3)ccnc2N)c1 [A243]; < 100 nM
C=CC(=O)Nc1cccc(Oc2ncnc(N)c2-c2cnn(Cc3cccc(C)c3)c2)c1 [A190]; < 100 nM

Q) Endpoint output: IC50 of C=CC(=O)N1CCC(CNc2ncnc(N)c2-c2cc(OC)c(OC)c(OC)c2)CC1 [A83] . Value?
A) < 1000 nM

Q) Endpoint output: IC50 of C=CC(=O)Nc1cccc(Oc2ncnc(N)c2-c2cnn(Cc3cccc(C(F)(F)F)c3)c2)c1 [A195] . Value?
A) < 100 nM

Q) Endpoint output: IC50 of C#CC(=O)N1CC2(CC(Nc3ncnc(N)c3-c3cnn(Cc4ccccc4)c3)C2)C1 [A111] . Value?
A) < 100 nM

Q) Endpoint output: IC50 of C=C(C)C(=O)Nc1cccc(-c2cnccc2Oc2ccc(Oc3ccccc3)cc2)c1 [A322] . Value?
A) > 1000 nM

----------
target: full-length human BTK (Homo sapiens (Human), UniProt Q06187); assay: BTK IC50 enzyme assay (microfluidic off-chip mobility shift kinase assay); settings: incubated for 90 min. at 27 C; read-out: Time Dependent BTK Enzyme Assay IC50
Sequence (Q06187 whole entry): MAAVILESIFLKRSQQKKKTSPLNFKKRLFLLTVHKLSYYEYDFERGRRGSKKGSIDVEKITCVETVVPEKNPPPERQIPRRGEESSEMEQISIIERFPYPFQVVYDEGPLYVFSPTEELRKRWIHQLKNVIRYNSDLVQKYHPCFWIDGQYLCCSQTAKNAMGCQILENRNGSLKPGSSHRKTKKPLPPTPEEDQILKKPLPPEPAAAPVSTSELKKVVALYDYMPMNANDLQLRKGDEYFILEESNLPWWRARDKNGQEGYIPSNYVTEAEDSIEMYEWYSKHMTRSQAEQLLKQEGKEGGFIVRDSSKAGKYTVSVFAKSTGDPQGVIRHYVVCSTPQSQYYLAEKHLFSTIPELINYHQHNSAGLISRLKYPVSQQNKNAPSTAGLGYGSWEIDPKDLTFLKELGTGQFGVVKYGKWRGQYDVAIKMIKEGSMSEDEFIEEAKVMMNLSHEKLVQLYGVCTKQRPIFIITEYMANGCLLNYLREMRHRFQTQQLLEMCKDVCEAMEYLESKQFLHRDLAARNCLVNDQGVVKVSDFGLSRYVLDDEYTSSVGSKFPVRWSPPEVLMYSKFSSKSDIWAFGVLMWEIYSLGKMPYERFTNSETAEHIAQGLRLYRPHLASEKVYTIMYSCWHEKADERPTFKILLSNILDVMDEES
pIC50: −log10 of the molar value.
PARAMETER: pIC50

Before answering, review these 5 worked examples.
CC#CC(=O)NCc1cccc(-c2cnccc2Oc2ccc(Oc3ccccc3)cc2)c1; < 6.00
C=CC(=O)N1CCC2(CCN(c3ncnc(N)c3-c3ccc(Oc4ccccc4)cc3)C2)C1 (stereo not drawn); > 6.00
CCC(=O)NCc1ccc(-c2cnccc2Oc2ccc(Oc3ccccc3)cc2)cc1; < 6.00
Nc1ncnc(Oc2cccc(NC(=O)CCl)c2)c1-c1ccc(OCc2ccccc2)c(F)c1; > 7.00
C=CC(=O)Nc1ccc(F)c(Oc2ncnc(N)c2-c2ccc(Oc3ccccc3)cc2)c1; > 7.00

Q) Endpoint output: pIC50 of Nc1ncnc(NCC2CCN(C(=O)/C=C/CN3CC(F)C3)CC2)c1-c1ccc(Oc2ccccc2)cc1 . Value?
A) > 6.00

Q) Endpoint output: pIC50 of Nc1ccc(Oc2ncnc(N)c2-c2ccc(Oc3ccccc3)cc2)cc1 . Value?
A) < 6.00

Q) Endpoint output: pIC50 of C=CC(=O)N1CC[C@@H](COc2ncnc(N)c2-c2cnn(Cc3ccccc3)c2)C1 . Value?
A) > 6.00

Q) Endpoint output: pIC50 of C=CC(=O)Nc1cccc(Oc2ncnc(N)c2-c2cnn(Cc3cccc(C#N)c3)c2)c1 . Value?
A) > 7.00

----------
target: full-length human BTK (Homo sapiens (Human)); test: BTK IC50 enzyme assay (microfluidic off-chip mobility shift kinase assay); details: incubated for 90 min. at 27 C; read-out: Time Dependent BTK Enzyme Assay IC50
Measured IC50 by item

Before answering, review these 5 worked examples.
C=CC(=O)N1CCC(CNc2ncnc(N)c2-c2ccc(Oc3ccncc3)cc2)CC1; < 1000 nM
C=CC(=O)Nc1cccc(Oc2ncnc(N)c2-c2ccc(OCc3ccccc3)nc2)c1; < 100 nM
C=CC(=O)N1CCC(CN(C)c2nc(C)nc(N)c2-c2ccc(Oc3ccccc3)cc2)CC1; > 1000 nM
Nc1ncnc(NCC2CCN(C(=O)C(O)CO)CC2)c1-c1ccc(Oc2ccccc2)cc1 (stereo not drawn); > 1000 nM
CCC(=O)Nc1cccc(-c2c(N)ncnc2Oc2ccc(Oc3ccccc3)cc2)c1; > 1000 nM

Q) Endpoint output: IC50 of C=CC(=O)N1CCC(COc2ncnc(N)c2-c2ccc(Oc3ccccc3)cc2)CC1 . Value?
A) < 1000 nM

----------
biological target: full-length human BTK (Homo sapiens (Human)); assay: BTK IC50 enzyme assay (microfluidic off-chip mobility shift kinase assay); conditions: incubated for 90 min. at 27 C; read-out: Time Dependent BTK Enzyme Assay IC50
pIC50: −log10 of the molar value.
Measured pIC50 by item

Before answering, review these 5 worked examples.
C=CC(=O)N1C[C@H](F)C[C@@H](Nc2ncnc(N)c2-c2ccc(Oc3ccccc3)cc2)C1; > 7.00
C=CC(=O)N1CC[C@@H](CNc2ncnc(N)c2-c2cnn(Cc3ccccc3)c2)[C@H](O)C1; > 7.00
C=CC(=O)Nc1ccc(F)c(Oc2ncnc(N)c2-c2ccc(Oc3ccccc3)nc2)c1; > 7.00
C=CC(=O)N[C@H]1CC[C@@H](Nc2ncnc(N)c2-c2ccc(C(=O)Nc3ccccc3)cc2)CC1; < 6.00
CN(C)C/C=C/C(=O)Nc1cccc(-c2cnccc2Oc2ccc(Oc3ccccc3)cc2)c1; > 7.00

Q) Endpoint output: pIC50 of C=CC(=O)N1CCC=C(c2c(N)ncnc2Nc2ccc(Oc3ccccc3)cc2)C1 . Value?
A) > 7.00

Q) Endpoint output: pIC50 of C=CC(=O)N1CCC(CNc2ncnc(N)c2-c2ccc(OCc3ccccc3)cc2)CC1 . Value?
A) > 6.00

Q) Endpoint output: pIC50 of C=CC(=O)NCCCCNc1ncnc(N)c1-c1ccc(Oc2ccccc2)cc1 . Value?
A) > 6.00

----------
Measured pIC50 by item
Molecular target: full-length human BTK (Homo sapiens (Human), UniProt Q06187)
Test: BTK IC50 enzyme assay (microfluidic off-chip mobility shift kinase assay)
Settings: incubated for 90 min. at 27 C; read-out: Time Dependent BTK Enzyme Assay IC50
Procedure: The following describes a microfluidic, off-chip mobility shift kinase assay used to measure inherent potency of compounds against BTK enzyme. Compounds described by embodiments of the present invention were assayed using this protocol and the data from the same is recorded in Table 2 within the column labeled: “Time Dependent BTK Enzyme Assay IC50”. […]
pIC50: −log10 of the molar value.

Before answering, review these 3 worked examples.
C=CC(=O)N1CCC(CNc2ncnc(N)c2-c2ccc(Oc3cccc(C(F)(F)F)c3)cc2)CC1; > 7.00
C=CC(=O)N1CCC(CNc2ncnc(N)c2-c2ccc(Oc3ccc(C(F)(F)F)cc3)cc2)CC1; > 6.00
C=CC(=O)N1CC[C@@H](COc2ncnc(N)c2-c2ccc(Oc3ccc(C#N)cc3)cc2)C1; > 6.00

Q) Endpoint output: pIC50 of CN(C)C/C=C/C(=O)N1CC[C@@H](CNc2ncnc(N)c2-c2ccc(Oc3ccccc3)cc2)[C@H](O)C1 . Value?
A) > 7.00

Q) Endpoint output: pIC50 of Nc1ncnc(NCC2(F)CCN(C(=O)CCN3CCCCC3)CC2)c1-c1ccc(Oc2ccccc2)cc1 . Value?
A) < 6.00

Q) Endpoint output: pIC50 of C=CC(=O)Nc1cccc(Oc2ncnc(N)c2-c2cnn(Cc3cccc(N(C)C)c3)c2)c1 . Value?
A) > 7.00

Q) Endpoint output: pIC50 of C=CC(=O)N1CCC2(CC(Nc3ncnc(N)c3-c3ccc(Oc4ccccc4)cc3)C2)C1 (centres unmarked) . Value?
A) > 7.00

Q) Endpoint output: pIC50 of C=CC(=O)Nc1cccc(Oc2ncnc(N)c2-c2ccc(Oc3ccc(F)cc3)nc2)c1 . Value?
A) > 6.00

----------
target: full-length human BTK (Homo sapiens (Human), UniProt Q06187); assay: BTK IC50 enzyme assay (microfluidic off-chip mobility shift kinase assay); conditions: incubated for 90 min. at 27 C; read-out: Time Dependent BTK Enzyme Assay IC50
Measured IC50 by item

C=CC(=O)Nc1cccc(Oc2ncnc(N)c2-c2ccc(NC(=O)c3ccccc3)cc2)c1; < 0.1 µM
C=CC(=O)N1CCC(CNc2ccnc(N)c2-c2ccc(Oc3ccccc3)cc2)CC1; < 1 µM

Attention now turns to another entry.
Q) GET /values?readout=IC50&system=full-length human BTK (Homo sapiens (Human), UniProt Q06187)&item= C=CC(=O)N1C2CCC1CC(CNc1ncnc(N)c1-c1ccc(Oc3ccc(C#N)cc3)cc1)C2 (stereo not drawn)
A) > 1 µM

----------
target: full-length human BTK (Homo sapiens (Human), UniProt Q06187); test: BTK IC50 enzyme assay (microfluidic off-chip mobility shift kinase assay); details: incubated for 90 min. at 27 C; read-out: Time Dependent BTK Enzyme Assay IC50
pIC50: −log10 of the molar value.
PARAMETER: pIC50

Before answering, review these 3 worked examples.
CN(C)C/C=C/C(=O)Nc1cccc(Oc2ncnc(N)c2-c2ccc(Oc3ccccc3)cc2)c1; > 7.00
Nc1ncnc(Oc2ccc(Oc3ccccc3)cc2)c1-c1cccc(NC(=O)/C=C/CN2CCCC(F)(F)C2)c1; < 6.00
C=CC(=O)N1C[C@H](Nc2ncnc(N)c2-c2ccc(Oc3ccccc3)cc2)[C@@H](O)C1 (relative stereo); > 7.00

Attention now turns to another entry.
Q) Endpoint output: pIC50 of CN(C)C/C=C/C(=O)N[C@H]1C[C@@H](Nc2ncnc(N)c2-c2ccc(Oc3ccccc3)cc2)C1 . Value?
A) > 7.00
